# tested_system: human natriuretic peptide receptor B (NPR-B) (human) (UniProt P20594)
# Sequence (P20594 23-1047): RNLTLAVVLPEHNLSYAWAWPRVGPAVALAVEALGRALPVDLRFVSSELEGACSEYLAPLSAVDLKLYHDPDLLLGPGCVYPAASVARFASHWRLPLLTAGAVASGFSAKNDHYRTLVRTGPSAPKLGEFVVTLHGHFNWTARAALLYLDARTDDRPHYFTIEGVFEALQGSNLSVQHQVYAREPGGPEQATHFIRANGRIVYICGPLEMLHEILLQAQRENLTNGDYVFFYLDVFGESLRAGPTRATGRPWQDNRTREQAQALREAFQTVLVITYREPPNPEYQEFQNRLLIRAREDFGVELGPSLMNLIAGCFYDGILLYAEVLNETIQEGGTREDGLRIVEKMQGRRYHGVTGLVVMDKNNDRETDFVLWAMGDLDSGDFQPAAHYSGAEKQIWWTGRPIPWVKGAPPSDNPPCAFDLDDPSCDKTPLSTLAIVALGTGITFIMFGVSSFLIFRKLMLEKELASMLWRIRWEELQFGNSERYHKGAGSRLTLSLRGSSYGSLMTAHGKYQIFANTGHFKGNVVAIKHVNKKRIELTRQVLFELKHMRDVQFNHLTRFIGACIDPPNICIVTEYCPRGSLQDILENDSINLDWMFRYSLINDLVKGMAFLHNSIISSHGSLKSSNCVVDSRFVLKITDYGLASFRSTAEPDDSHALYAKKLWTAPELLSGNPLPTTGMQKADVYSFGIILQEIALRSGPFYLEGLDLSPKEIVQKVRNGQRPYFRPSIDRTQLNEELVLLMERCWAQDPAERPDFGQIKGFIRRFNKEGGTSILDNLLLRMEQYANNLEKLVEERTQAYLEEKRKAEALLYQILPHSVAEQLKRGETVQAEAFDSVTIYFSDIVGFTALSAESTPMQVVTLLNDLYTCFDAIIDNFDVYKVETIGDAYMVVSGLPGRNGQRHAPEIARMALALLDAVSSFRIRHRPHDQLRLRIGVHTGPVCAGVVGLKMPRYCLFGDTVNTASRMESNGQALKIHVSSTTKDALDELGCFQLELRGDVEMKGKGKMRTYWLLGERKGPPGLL
# test_protocol: cell-based or functional assay
% Efficacy values for the binders below.
metric: % Efficacy (%)

>>> assay_result("EEEEEESGGGGSGGGGSGGGGGLSKGCFGLKLDRIGSMSGLGC [C1(E6) [BC1]]")
97
>>> assay_result("EEEEEESGGGGSGGGKGANQQGLSKGCFGLKLDRIGSMSGLGC [C9(E6) [BC9]]")
95
>>> assay_result("EEEEEESGGGGSGGGKGANKQGLSKGCFGLKLDRIGSMSGLGC [C6(E6) [BC6]]")
88
>>> assay_result("EEEEEESGGGGSGGGQGANQQGLSKGCFGLKLDRIGSMSGLGC [C5(E6) [BC5]]")
96
>>> assay_result("EEEEEESGGGGSGGGQGANQKGLSKGCFGLKLDRIGSMSGLGC [C10(E6) [BC10]]")
156
>>> assay_result("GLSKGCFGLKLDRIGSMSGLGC [human CNP22]")
100
>>> assay_result("EEEEEESGGGGSGGGKGANQKGLSKGCFGLKLDRIGSMSGLGC [C7(E6) [BC7]]")
95
